Target: MMP-14 (Homo sapiens, UniProt P50281)
Construct: The catalytic domain enzyme was expressed in E. coli inclusion bodies, solubilized in urea; made in house
Experiment: In vitro MMP inhibition, Ki determination (fluorogenic substrate II)
Type: biochemical
Settings: value not in parenthesis; read-out: MMP-14 Ki
Experimental: Several hydroxamic acids and salts thereof were analyzed in in vitro assays to determine their ability to inhibit the MMP cleavage of peptide substrates. […] and IC50 constants were calculated from the assayed hydroxamic acid-MMP interactions. […] The assays from which the Ki determinations were made were performed as follows. […] In the absence of MMP inhibitory activity, substrate II was cleaved at the Gly-Leu bond resulting in an increase of relative fluorescence. […]
pKi: −log10 of the molar value.
MEASURED PROPERTY: pKi

Example compounds with recorded pKi:
compound="CCC(C)Cc1ccc(N2CCN(S(=O)(=O)C3(C(=O)NO)CCN(CCOC)CC3)CC2)cc1 (centres unmarked) [Example 190]" tested_system="MMP-14 (Homo sapiens, UniProt P50281)" measured_value=5.21
compound="CCCCOc1ccc(N2CCN(S(=O)(=O)C3(C(=O)NO)CCN(c4ccc(OC)c(OC)c4)CC3)CC2)cc1 [Example 229]" tested_system="MMP-14 (Homo sapiens, UniProt P50281)" measured_value=5.10
compound="CCCCc1ccc(C2CCN(S(=O)(=O)C3(C(=O)NO)CCN(CCOC)CC3)CC2)s1 [Example 55]" tested_system="MMP-14 (Homo sapiens, UniProt P50281)" measured_value=5.61
compound="COCCN1CCC(C(=O)NO)(S(=O)(=O)N2CCN(c3ccc(C(C)=O)cc3)CC2)CC1 [Example 174]" tested_system="MMP-14 (Homo sapiens, UniProt P50281)" measured_value=5.54
compound="CCCCOc1ccc(N2CCN(S(=O)(=O)C3(C(=O)NO)CCN(CCN4CCOCC4)CC3)CC2)cc1 [Example 233]" tested_system="MMP-14 (Homo sapiens, UniProt P50281)" measured_value=5.51

a. CCCCOc1c(F)cc(N2CCN(S(=O)(=O)C3(C(=O)NO)CCN(CCOC)CC3)CC2)cc1F [Example 165]
b. COCCN1CCC(C(=O)NO)(S(=O)(=O)N2CCN(c3ccc(Br)cc3)CC2)CC1 [Example 201]
Challenge: Of the two listed items, a and b , which carries the larger pKi figure? Response format: the label of the selected entry.
Response given: b
(b: 6.92, a: 5.44)
